- System name: HDAC4 (Homo sapiens, UniProt P56524)
- Sequence (P56524 whole entry, species assumed): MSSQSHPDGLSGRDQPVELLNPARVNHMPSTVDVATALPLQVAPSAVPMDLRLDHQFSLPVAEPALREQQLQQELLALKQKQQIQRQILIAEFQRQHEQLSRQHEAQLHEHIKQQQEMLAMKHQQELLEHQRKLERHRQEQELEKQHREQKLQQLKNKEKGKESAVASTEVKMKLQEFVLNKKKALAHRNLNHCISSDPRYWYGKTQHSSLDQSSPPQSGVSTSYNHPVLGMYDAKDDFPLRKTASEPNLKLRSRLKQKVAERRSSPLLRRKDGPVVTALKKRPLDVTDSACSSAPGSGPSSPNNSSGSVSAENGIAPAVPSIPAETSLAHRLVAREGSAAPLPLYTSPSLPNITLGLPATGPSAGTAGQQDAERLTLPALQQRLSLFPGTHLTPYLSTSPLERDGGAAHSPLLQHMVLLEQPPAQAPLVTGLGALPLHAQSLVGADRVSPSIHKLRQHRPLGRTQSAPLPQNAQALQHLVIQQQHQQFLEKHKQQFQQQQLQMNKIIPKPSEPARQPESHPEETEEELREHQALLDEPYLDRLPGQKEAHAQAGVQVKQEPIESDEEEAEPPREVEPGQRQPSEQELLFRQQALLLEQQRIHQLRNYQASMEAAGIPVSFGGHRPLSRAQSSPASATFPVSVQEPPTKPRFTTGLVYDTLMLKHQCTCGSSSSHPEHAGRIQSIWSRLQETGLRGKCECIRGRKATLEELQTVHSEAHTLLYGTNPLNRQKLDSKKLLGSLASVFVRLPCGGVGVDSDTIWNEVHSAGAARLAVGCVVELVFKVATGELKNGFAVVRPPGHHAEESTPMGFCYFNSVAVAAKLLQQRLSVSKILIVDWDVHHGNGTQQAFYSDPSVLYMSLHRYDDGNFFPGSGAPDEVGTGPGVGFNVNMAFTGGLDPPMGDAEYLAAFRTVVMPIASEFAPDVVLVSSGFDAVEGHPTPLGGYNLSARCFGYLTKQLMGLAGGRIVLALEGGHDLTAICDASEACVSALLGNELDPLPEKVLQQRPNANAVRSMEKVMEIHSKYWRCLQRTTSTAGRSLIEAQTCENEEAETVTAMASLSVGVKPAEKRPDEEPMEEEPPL
- Procedure text: HDAC enzyme activity assay (fluorogenic, Boc-Lys(trifluoroacetyl)-AMC substrate), HDAC4
- Run conditions: recombinant HDAC4; BOC-LYS-(TFA)-AMC as substrate, 100 mM TRIS, 300 mM KCl, pH 8.0 buffer, 30 °C
Quantity: IC50

| Given smiles | Quantity | Recorded value |
| --- | --- | --- |
| CSc1nc(C)cc(OCCCCCC(=O)NO)n1 | IC50 | > 50 µM |
| CSc1nc(C)cc(OCCCC(=O)NO)n1 | IC50 | > 50 µM |
| CSc1nc(C)cc(OCC(=O)NO)n1 | IC50 | 38 µM |
| CCCc1c(C)nc(SC)nc1OCCCC(=O)NO | IC50 | > 35 µM |
| CCCc1c(C)nc(SC)n(CC(=O)NO)c1=O | IC50 | > 35 µM |
| CCCc1c(C)nc(SC)nc1OCCCCCC(=O)NO | IC50 | 16.6 µM |
| CCCc1c(C)nc(SC)nc1OCC(=O)NO | IC50 | 38 µM |
| CCCc1c(C)nc(SC)n(CCCC(=O)NO)c1=O | IC50 | > 35 µM |

---

- System name: HDAC8 (Homo sapiens, UniProt Q9BY41)
- Sequence (Q9BY41 whole entry, species assumed): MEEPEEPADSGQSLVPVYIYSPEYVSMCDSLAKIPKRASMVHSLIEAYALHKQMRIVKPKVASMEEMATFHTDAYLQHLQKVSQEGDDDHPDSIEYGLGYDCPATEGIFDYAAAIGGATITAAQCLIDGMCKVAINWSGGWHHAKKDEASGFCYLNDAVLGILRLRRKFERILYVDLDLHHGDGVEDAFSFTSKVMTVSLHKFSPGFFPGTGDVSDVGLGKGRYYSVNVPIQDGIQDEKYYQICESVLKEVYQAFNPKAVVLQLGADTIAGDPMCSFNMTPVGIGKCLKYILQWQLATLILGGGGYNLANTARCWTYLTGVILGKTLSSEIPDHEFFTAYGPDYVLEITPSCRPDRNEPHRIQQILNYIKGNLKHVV
- Procedure text: HDAC enzyme activity assay (fluorogenic, Boc-Lys(trifluoroacetyl)-AMC substrate), HDAC8
- Run conditions: recombinant HDAC8; BOC-LYS-(TFA)-AMC as substrate, 100 mM TRIS, 300 mM KCl, pH 8.0 buffer, 30 °C
pIC50: −log10 of the molar value.
In this section we review reported pIC50 values for a set of compounds.

| Compound | Qualifier symbol | pIC50 |
| --- | --- | --- |
| CCCc1c(C)nc(SC)n(CC(=O)NO)c1=O [compound 30] | < | 4.46 |
| CSc1nc(C)cc(OCCCC(=O)NO)n1 [compound 25] | = | 5.25 |
| CCCc1c(C)nc(SC)nc1OCC(=O)NO [compound 27] | = | 5.85 |
| Cc1cc(OCC(=O)NO)nc(N(C)C)n1 [compound 16] | = | 4.46 |
| CCCc1c(C)nc(SC)nc1OCCCC(=O)NO [compound 28] | = | 5.62 |
| CSc1nc(C)cc(OCCCCCC(=O)NO)n1 [compound 26] | = | 5.69 |

---

Examples of compounds with documented melting point follow.

| Compound | melting point |
| --- | --- |
| Cc1cc(OCC(=O)NO)nc(O)n1 [compound 18] | 190 to 191 °C (dec.) |
| Cc1cc(OCC(=O)NO)nc(N(C)C)n1 [compound 16] | 192 to 194 °C |
| CSc1nc(C)cc(OCC(=O)NO)n1 [compound 12] | 182 to 184 °C |
| CCCc1c(C)nc(SC)nc1OCCCC(=O)NO [compound 28] | 125 to 127 °C |
| CCCc1c(C)nc(SC)n(CC(=O)NO)c1=O [compound 30] | 185 to 187 °C |
| CCCc1c(C)nc(SC)n(CCCC(=O)NO)c1=O [compound 31] | 133 to 135 °C |
| Cc1cc(OCC(=O)NO)nc(N2CCCC2)n1 [compound 17] | 178 to 180 °C |
| CSc1nc(C)cc(OCCCC(=O)NO)n1 [compound 25] | 150 to 151 °C |
| CSc1nc(C)cc(OCCCCCC(=O)NO)n1 [compound 26] | 112 to 113 °C |
| C=CCNc1nc(C)cc(OCC(=O)NO)n1 [compound 14] | 177 to 179 °C |
| Cc1cc(OCC(=O)NO)nc(NCc2ccccc2)n1 [compound 15] | 168 to 170 °C |
| CCSc1nc(C)cc(OCC(=O)NO)n1 [compound 13] | 175 to 176 °C |
| CCCc1c(C)nc(SC)nc1OCC(=O)NO [compound 27] | 144 to 146 °C |
